List of Kd values.
Target: HLA-A*69:01
Assay: IEDB peptide-MHC binding, purified MHC/direct/fluorescence; filed as Kd, often an IC50 or EC50 that approximates it; bounds were set here for any values at or beyond the usual limits of such assays
Conditions: source organism: SARS-CoV1
Value expressed in nM; do not type the unit.

{"SEQUENCE_DATA": "VLWAHGFEL", "MEASUREMENT_TARGET": "HLA-A*69:01", "UNIT_TEXT": "nM", "Kd": 65.5}

Please find the next sequence below.
# Kd of `YIFFASFYY` = 738

* * *

Molecular target: HLA-B*39:01
Assay: IEDB peptide-MHC binding, purified MHC/competitive/fluorescence; filed as Kd, often an IC50 or EC50 that approximates it; bounds were set here for any values at or beyond the usual limits of such assays
Details: source organism: Escherichia coli O139:H28 str. E24377A
pKd: −log10 of the molar value.
QUANTITY_KIND: pKd

pKd on HLA-B*39:01 for `RQGWARAML` is ≤ 4.70
